experiment_summary: Metabolic stability in mouse liver microsomes at 3 uM in presence of NADPH after 10 min
Format: ADME, Microsome
value_type: metabolic rate (nmol/min/mg)

Recorded results for 3 compounds are shown here.
# compound, metabolic rate [nmol/min/mg]
records = [
    ("CN1CCCN(Cc2ccn3ncnc(Nc4ccc5c(cnn5Cc5cccc(F)c5)c4)c23)CC1", 0.21),
    ("Cc1ccn2ncnc(Nc3ccc4c(cnn4Cc4cccc(F)c4)c3)c12", 0.14),
    ("O=C1CCN(Cc2ccn3ncnc(Nc4ccc5c(cnn5Cc5cccc(F)c5)c4)c23)CCN1", 0.27),
]

P. Fc1cccc(Cn2ncc3cc(Nc4ncnn5ccc(CN6CCNCC6)c45)ccc32)c1
Q. OC1CCN(Cc2ccn3ncnc(Nc4ccc5c(cnn5Cc5cccc(F)c5)c4)c23)CC1
R. O[C@@H]1CNCCN(Cc2ccn3ncnc(Nc4ccc5c(cnn5Cc5cccc(F)c5)c4)c23)C1
Which order do these items take when sorted by rising metabolic rate? List them. Dear reader, please state the labels in the requested order.
P, R, Q
